measured-on: adenosine A1 receptor (Homo sapiens)
Sequence (P30542 whole entry): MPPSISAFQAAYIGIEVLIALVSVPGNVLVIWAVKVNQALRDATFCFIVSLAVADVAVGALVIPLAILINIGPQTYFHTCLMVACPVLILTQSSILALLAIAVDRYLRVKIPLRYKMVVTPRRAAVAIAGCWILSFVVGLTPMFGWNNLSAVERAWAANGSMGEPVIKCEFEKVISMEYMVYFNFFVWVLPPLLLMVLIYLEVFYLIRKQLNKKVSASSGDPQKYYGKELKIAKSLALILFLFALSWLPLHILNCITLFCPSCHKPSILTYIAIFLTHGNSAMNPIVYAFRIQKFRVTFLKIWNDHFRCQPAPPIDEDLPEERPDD
assay-overview: In vitro functional activity based on the stimulation of [35S]-GTPγS binding (SPA, agonist format)
Format: biochemical
condition-set: mean of >2 measurements; A1 membranes, [35S]-GTPγS SPA assay; read-out: Mean pEC50 (converted)
reported-property: EC50 (nM)
Quick note: give the figure in nM, leave out the unit.

- test-smiles: "O=C(CO)N[C@H]1C[C@@H](n2cnc3c(NC4CCCC4)ncnc32)[C@H](O)[C@@H]1O"
  EC50 [nM]: 97.9
- test-smiles: "O=C(CO)N[C@H]1C[C@@H](n2cnc3c(NC4CCCC4)nc(Cl)nc32)[C@H](O)[C@@H]1O"
  EC50 [nM]: 40.1
- test-smiles: "CCC(=O)N[C@H]1C[C@@H](n2cnc3c(NC4CCCC4)nc(Cl)nc32)[C@H](O)[C@@H]1O"
  EC50 [nM]: 67.7

Continue with the compound presented below.
The compound identified as CCC(=O)N[C@H]1C[C@@H](n2cnc3c(NC4CCCC4)ncnc32)[C@H](O)[C@@H]1O registered its EC50 at 47.9

Source: patent US20100197914A1
